tested on: Pseudomonas aeruginosa; experiment: Inhibition of Pseudomonas aeruginosa PAM 2035 AmpC assessed as minimum concentration of compound needed to reduce the MIC of aztreonam to 4 ug/ml
quantity_name: MEC

Past entries and their recorded results:
compound=CSCC(=O)N[C@H]1Cc2ccc(OCCO)c(C(=O)O)c2OB1O reported_result="> 20 µg/mL"
compound=N#CCOc1ccc2c(c1C(=O)O)OB(O)[C@@H](Sc1nncs1)C2 reported_result="> 20 µg/mL"
compound=C[C@@H]1Cc2cccc(C(=O)O)c2OB1O reported_result="1.25 µg/mL"

Now consider the entry below.
// recorded MEC for O=C(O)c1c(F)ccc2c1OB(O)[C@@H](Sc1nncs1)C2 : 20 µg/mL
